# TGT: GST-LXRβ ligand-binding domain (Homo sapiens, UniProt P55055, INS174Q)
# Construct: amino acids 156-461; NP009052
# ASSAY EXPLANATION: TR-FRETβ activity assay (NCoA3 coactivator peptide recruitment)
# TEST SETTINGS: 1 μM 24(S)-25-epoxycholesterol as prestimulating agonist; inverse agonist unless *
pEC50: −log10 of the molar value.
The molecules listed here are annotated with their pEC50.

# pEC50 of Cc1c(CN(Cc2ccc(-c3cccc(C(C)(C)C(=O)O)c3)cc2)Cc2ccc(C(F)(F)F)o2)c2ccccc2n(C)c1=O = 6.00 to 7.00

# pEC50 of Cc1ccc2ccccc2c1C(=O)N(Cc1ccc(-c2cccc(C(C)(C)C(=O)O)c2)cc1)Cc1ccc(C(C)(C)C)o1 = 5.00 to 6.00

# pEC50 of Cc1ccc2ccccc2c1CN(Cc1ccc(-c2cccc(C(C)(C)C(=O)O)c2)cc1)Cc1ccc(C(F)(F)F)o1 = > 7.00

# pEC50 of Cc1cc(C)c(CN(Cc2ccc(-c3cccc(S(=O)(=O)CC(=O)O)c3)cc2)C(C)c2ccc(C(F)(F)F)o2)c(C)c1 (stereo not shown) = 5.00 to 6.00

# pEC50 of CC(C)(C(=O)O)c1cccc(-c2ccc(CN(Cc3ccc(C(F)(F)F)o3)C(C)(C)c3cccc4ccccc34)cc2)c1 = > 7.00

# pEC50 of Cc1ccc2ccccc2c1C(=O)N(Cc1ccc(-c2cccc([C@H](C)C(=O)O)c2)cc1)Cc1cccc(C(F)(F)F)c1 = > 7.00

# pEC50 of Cc1ccc2c(CN(Cc3ccc(-c4cccc(C(C)(C)C(=O)O)c4)cc3)Cc3ccc(C(F)(F)F)o3)c(C)ccc2c1 = 6.00 to 7.00

###

# TGT: LXRβ full length (FL) (Homo sapiens, UniProt P55055, INS174Q)
# Construct: the full length (FL) proteins of LXRα (amino acids 1-447); NP005684; NP009052
# Sequence (P55055 with tags, fused parts or gaps INS174Q): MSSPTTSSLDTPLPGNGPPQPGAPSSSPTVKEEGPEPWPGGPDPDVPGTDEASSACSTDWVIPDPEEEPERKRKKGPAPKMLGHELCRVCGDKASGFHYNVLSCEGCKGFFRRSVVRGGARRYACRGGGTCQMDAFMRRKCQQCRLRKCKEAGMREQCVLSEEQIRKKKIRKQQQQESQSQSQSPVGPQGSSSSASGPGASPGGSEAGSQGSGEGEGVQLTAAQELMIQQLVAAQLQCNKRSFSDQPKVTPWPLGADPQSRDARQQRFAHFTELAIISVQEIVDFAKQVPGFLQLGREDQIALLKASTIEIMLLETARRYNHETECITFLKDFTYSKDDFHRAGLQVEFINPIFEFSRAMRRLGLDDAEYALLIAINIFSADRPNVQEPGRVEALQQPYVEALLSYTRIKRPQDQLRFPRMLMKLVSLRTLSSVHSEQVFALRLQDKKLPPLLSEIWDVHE
# ASSAY EXPLANATION: LXR Gal4 reporter transient transfection assay, mammalian two-hybrid, FL-M2H Gal4β
# TEST SETTINGS: HEK293 cells; inverse agonist unless *
The compounds listed here are annotated with their EC50.

# EC50 of Cc1nc2ccccc2c(C(=O)N(Cc2ccc(-c3cccc(C(C)(C)C(=O)O)c3)cc2)Cc2ccc(C(F)(F)F)o2)c1O = 100 to 1000 nM

# EC50 of CC(C)(C(=O)O)c1cccc(-c2ccc(CN(Cc3ccc(C(F)(F)F)o3)C(=O)c3cccc4cnncc34)cc2)c1 = 100 to 1000 nM

Next:
# EC50 of COc1ccc2nc(C)c(C)c(C(=O)N(Cc3ccc(-c4cccc(C(C)(C)C(=O)O)c4)cc3)Cc3ccc(C(F)(F)F)o3)c2n1 = < 100 nM

# EC50 of O=C(O)CS(=O)(=O)c1cccc(-c2ccc(CN(Cc3ccccc3)Cc3ccc(C(F)(F)F)o3)cc2)c1 = 1000 to 10000 nM

###

The molecules listed here are annotated with their Kp at 4 h.
# ASSAY EXPLANATION: Pharmacokinetics in mice after single oral dosing, blood and liver exposure by LC-MS
# Assay type: in vivo, mice (C57/bl6/J)
# TEST SETTINGS: male, C57/bl6/J, mouse, liver/blood, single oral dose 20 mg/kg, time point 4 h, read-out: liver/blood ratio
Simply state the number, no unit and no words.

Here's what some known entries look like.
# Kp at 4 h of Cc1cc(C)c(CN(Cc2ccc(-c3cccc(S(=O)(=O)CC(=O)O)c3)cc2)Cc2ccc(C(F)(F)F)o2)c(C)c1 [Example 1] = 51

# Kp at 4 h of CCOC(=O)c1ccc(CN(Cc2ccc(-c3cccc(C(C)(C)C(=O)O)c3)cc2)C(=O)c2c(C)ccc3ccccc23)o1 [27/28] = 844

# Kp at 4 h of N#Cc1ccc2ccccc2c1CN(Cc1ccc(-c2cccc(S(=O)(=O)CC(=O)O)c2)cc1)Cc1ccc(C(F)(F)F)o1 [7/7] = 44

Next:
# Kp at 4 h of Cc1ccc2ccccc2c1C(=O)N(Cc1ccc(C(F)(F)F)o1)Cc1ncc(-c2cccc(C(C)(C)C(=O)O)c2)cc1Cl [27/78] = 116

# Kp at 4 h of Cc1ccc2ccccc2c1C(=O)N(Cc1ccc(-c2cc(F)c(CO)c(S(=O)(=O)CC(=O)O)c2)cc1)Cc1ccc(C(F)(F)F)o1 [22/8] = 19

# Kp at 4 h of Cc1ccc2ccccc2c1CN(Cc1ccc(C(F)(F)F)o1)Cc1ccc(-c2cncc(S(=O)(=O)CC(=O)O)c2)cc1Cl [26/8] = 178

# Kp at 4 h of Cc1c(CN(Cc2ccc(-c3cccc(C(C)(C)C(=O)O)c3)cc2)Cc2ccc(C(F)(F)F)o2)c2ccccc2n(C)c1=O [27/23] = 19

###

# TGT: GST-LXRβ ligand-binding domain (Homo sapiens, UniProt P55055, INS174Q)
# Construct: amino acids 156-461; NP009052
# ASSAY EXPLANATION: TR-FRETβ activity assay (NCoA3 coactivator peptide recruitment)
# TEST SETTINGS: 1 μM 24(S)-25-epoxycholesterol as prestimulating agonist; inverse agonist unless *
OBSERVATION TYPE: EC50

Here's what some known entries look like.
# EC50 of CC(C)(C(=O)O)c1cccc(-c2ccc(CN(Cc3ccc(C(F)(F)F)o3)C(=O)c3c4ccccc4cc4ccccc34)cc2)c1 [27/47] = < 0.1 µM

# EC50 of CONC(=O)CS(=O)(=O)c1cccc(-c2ccc(CN(Cc3ccc(C(F)(F)F)o3)Cc3c(C)cc(C)cc3C)cc2)c1 [Example 5/1] = 0.1 to 1 µM

# EC50 of Cc1cc(Br)cc(C)c1C(=O)N(Cc1ccc(-c2cccc(C(C)(C)C(=O)O)c2)cc1)Cc1ccc(C(F)(F)F)o1 [27/48] = 0.1 to 1 µM

# EC50 of Cc1ccc2ccccc2c1C(=O)N(CCc1cccc(Br)c1)Cc1ccc(-c2cccc(C(C)(C)C(=O)O)c2)cc1 [27/30] = 1 to 10 µM

# EC50 of CCc1nc2ccncc2c(C(=O)N(Cc2ccc(-c3cccc(C(C)(C)C(=O)O)c3)cc2)Cc2ccc(C(F)(F)F)o2)c1C [27/89] = 1 to 10 µM

# EC50 of CC(c1cccc2ccccc12)N(Cc1ccc(-c2cccc(S(=O)(=O)CC(=O)O)c2)cc1)Cc1ccc(C(F)(F)F)o1 (centres unmarked) [Example 7] = < 0.1 µM

# EC50 of Cc1cc(C)c2ccccc2c1CN(Cc1ccc(-c2cccc(C(C)(C)C(=O)O)c2)cc1)Cc1ccc(C(F)(F)F)o1 [24/6] = 0.1 to 1 µM

# EC50 of Cc1ccc2ccccc2c1C(=O)N(Cc1ccc(C(F)(F)F)o1)Cc1ccc(-c2cncc(C(C)(C)C(=O)O)c2)cc1OC(F)F [27/64] = 0.1 to 1 µM

# EC50 of COc1cc(-c2cccc(C(C)(C)C(=O)O)c2)cnc1CN(Cc1ccc(C(F)(F)F)o1)Cc1c(C)ccc2ccccc12 [22/4] = 0.1 to 1 µM

# EC50 of Cc1ccc2ccccc2c1CN(Cc1ccc(-c2cncc(S(=O)(=O)CC(=O)O)c2)cc1)Cc1ccc(C(F)(F)F)o1 [26/7] = > 10 µM

Next:
# EC50 of Cc1cc(C)c(CN(Cc2ccc(-c3cccc(S(=O)(=O)CC(=O)NO)c3)cc2)Cc2ccc(C(F)(F)F)o2)c(C)c1 [Example 5] = 0.1 to 1 µM

###

The compounds listed here are annotated with their Kp at 4 h.
# ASSAY EXPLANATION: Short term HFD mouse model: liver and plasma exposure after multiple oral dosing
# Assay type: in vivo, mice (C57BL/6J)
# TEST SETTINGS: C57BL/6J, liver/plasma, HFD mice, three oral doses of 1.5 mg/kg each, 4 h after final dose, read-out: liver/plasma ratio, 4 h

# Kp at 4 h of CCOC(=O)c1ccc(CN(Cc2ccc(-c3cccc(C(C)(C)C(=O)O)c3)cc2)C(=O)c2c(C)ccc3ccccc23)o1 [27/28] = 600

Kindly consider the entry below.
# Kp at 4 h of Cc1ccc2ccccc2c1C(=O)N(Cc1ccc(-c2cccc(C(C)(C)C(=O)O)c2)cc1)Cc1ccc(C(F)(F)F)o1 [27/26] = 6.5
